- Tested on: HT29 RNF43 G659fs (RNF43 659mut, CRISPR-edited)
- test-details: cell viability activity relative to DMSO (negative = inhibition); higher = more viable cells (less growth inhibition)
- test-context: 5 µM; 96 h
Mark true (1) only for cell viability activity values smaller than -70%; exact matches and larger values are false (0).

> print(dat)
                                    molecule                       experimental.system        cat
 1  COc1cc(N2CCC(N3CCN(C)CC3)CC2)ccc1Nc1ncc(Cl)c(Nc2ccccc2P(C)(C)=O)n1  HT29 RNF43 G659fs (RNF43 659mut, CRISPR-edited)   true (1)
 2  COc1cc(NC(=O)Nc2cccc(CNC(=O)O[C@H]3CCOC3)c2)ccc1-c1cnco1  HT29 RNF43 G659fs (RNF43 659mut, CRISPR-edited)  false (0)
 3  CCCCCCCCNC(C)C(O)c1ccc(SC(C)C)cc1 (stereo not drawn)  HT29 RNF43 G659fs (RNF43 659mut, CRISPR-edited)   true (1)
 4  C[C@H](Oc1ccc(S(C)(=O)=O)cc1C(=O)N1CCN(c2ncc(C(F)(F)F)cc2F)CC1)C(F)(F)F  HT29 RNF43 G659fs (RNF43 659mut, CRISPR-edited)  false (0)
 5  Cc1cc(OCc2nc(-c3ccccc3Cl)cs2)ccc1OCC(=O)O  HT29 RNF43 G659fs (RNF43 659mut, CRISPR-edited)  false (0)
 6  CN1C/C=C/CCOc2cccc(c2)-c2ccnc(n2)Nc2cccc(c2)C1  HT29 RNF43 G659fs (RNF43 659mut, CRISPR-edited)   true (1)
 7  CC1(C)CC[C@]2(C(=O)O)CC[C@]3(C)[C@H](C(=O)C=C4[C@@]5(C)C=C(C#N)C(=O)C(C)(C)[C@@H]5CC[C@]43C)[C@@H]2C1  HT29 RNF43 G659fs (RNF43 659mut, CRISPR-edited)   true (1)
 8  CCNC(=O)c1noc(-c2cc(C(C)C)c(O)cc2O)c1-c1ccc(CN2CCOCC2)cc1  HT29 RNF43 G659fs (RNF43 659mut, CRISPR-edited)   true (1)
 9  CCCCCCCCCCC(CO)CCCCCCCC (stereo not drawn)  HT29 RNF43 G659fs (RNF43 659mut, CRISPR-edited)  false (0)
10         CCCCCCCCCCCC[N+](C)(C)CCOc1ccccc1  HT29 RNF43 G659fs (RNF43 659mut, CRISPR-edited)   true (1)
11  C=CCn1c(=O)c2cnc(Nc3ccc(N4CCN(C)CC4)cc3)nc2n1-c1cccc(C(C)(C)O)n1  HT29 RNF43 G659fs (RNF43 659mut, CRISPR-edited)   true (1)
12  CC(C)[C@H]1c2ccc(F)cc2CC[C@@]1(CCN(C)CCCc1nc2ccccc2[nH]1)OC(=O)C1CC1  HT29 RNF43 G659fs (RNF43 659mut, CRISPR-edited)   true (1)
13  CCn1cc(-c2ccnc3[nH]c(-c4cccc(CN(C)C)c4)cc23)c(-c2ccc(NC(=O)N(C)C)cc2)n1  HT29 RNF43 G659fs (RNF43 659mut, CRISPR-edited)   true (1)
14  Cn1nccc1Nc1nccc(-c2ccn([C@H](CO)c3ccc(Cl)c(F)c3)c(=O)c2)n1  HT29 RNF43 G659fs (RNF43 659mut, CRISPR-edited)  false (0)
15  O=C(NOC[C@H](O)CO)c1ccc(F)c(F)c1Nc1ccc(I)cc1F  HT29 RNF43 G659fs (RNF43 659mut, CRISPR-edited)   true (1)
16  C1=N/C2=N/c3ccc(OCCN4CCCC4)c(c3)COC/C=C/COCc3cccc(c3)C(=C1)N2  HT29 RNF43 G659fs (RNF43 659mut, CRISPR-edited)  false (0)
17  CCN(CC)CC1CCN(c2ncc3ncnc(Nc4ccc(F)c(Cl)c4)c3n2)CC1  HT29 RNF43 G659fs (RNF43 659mut, CRISPR-edited)  false (0)
18  FC(F)(F)Oc1ccc2nc(-c3ccc(OCCOCCOc4ccc(-c5nc6ccc(OC(F)(F)F)cc6[nH]5)nc4)cn3)[nH]c2c1  HT29 RNF43 G659fs (RNF43 659mut, CRISPR-edited)  false (0)
19  COc1cc(N2CCC(N)CC2)ccc1Nc1ncc(Cl)c(-c2c[nH]c3ccccc23)n1  HT29 RNF43 G659fs (RNF43 659mut, CRISPR-edited)   true (1)
20  CC(C)c1cc(C(C)C)c(-c2csc(N(CCN(C)C)Cc3cccnc3)n2)c(C(C)C)c1  HT29 RNF43 G659fs (RNF43 659mut, CRISPR-edited)  false (0)
21  CCCCc1oc2ccc(NS(C)(=O)=O)cc2c1C(=O)c1ccc(OCCCN(CCCC)CCCC)cc1  HT29 RNF43 G659fs (RNF43 659mut, CRISPR-edited)   true (1)
22         OCc1ccc(-c2ccc(-c3ccc(CO)s3)o2)s1  HT29 RNF43 G659fs (RNF43 659mut, CRISPR-edited)  false (0)
23    COc1ccc(/C=C\c2cc(OC)c(OC)c(OC)c2)cc1O  HT29 RNF43 G659fs (RNF43 659mut, CRISPR-edited)  false (0)
24  C[C@@H](CN1CC(=O)NC(=O)C1)N1CC(=O)NC(=O)C1  HT29 RNF43 G659fs (RNF43 659mut, CRISPR-edited)  false (0)
25  CC[C@@H](C)Nc1cc(C(=O)N[C@H]2C[C@H]3CC[C@@H](C2)N3c2ccc(C(=O)C3CC3)cn2)c(C)cc1C(N)=O  HT29 RNF43 G659fs (RNF43 659mut, CRISPR-edited)   true (1)
26         COc1ccc2[nH]c(C(=O)c3ccccc3)cc2c1  HT29 RNF43 G659fs (RNF43 659mut, CRISPR-edited)  false (0)
27  CC[C@@H]1C(=O)N(C)c2cnc(Nc3ccc(C(=O)N[C@H]4CC[C@H](N5CCN(CC6CC6)CC5)CC4)cc3OC)nc2N1C(C)C  HT29 RNF43 G659fs (RNF43 659mut, CRISPR-edited)  false (0)
28            CCCCc1ccc2[nH]c(NC(=O)OC)nc2c1  HT29 RNF43 G659fs (RNF43 659mut, CRISPR-edited)  false (0)
29                     S=c1[nH]cnc2nc[nH]c12  HT29 RNF43 G659fs (RNF43 659mut, CRISPR-edited)  false (0)
30  CN(c1ccccc1CNc1nc(Nc2ccc3c(c2)CC(=O)N3)ncc1C(F)(F)F)S(C)(=O)=O  HT29 RNF43 G659fs (RNF43 659mut, CRISPR-edited)  false (0)
31  CCOc1cc2ncc(C#N)c(Nc3ccc(F)c(Cl)c3)c2cc1NC(=O)/C=C/CN(C)C  HT29 RNF43 G659fs (RNF43 659mut, CRISPR-edited)   true (1)
32  CC[C@@]1(O)C(=O)OCc2c1cc1n(c2=O)Cc2cc3c([N+](=O)[O-])cccc3nc2-1  HT29 RNF43 G659fs (RNF43 659mut, CRISPR-edited)   true (1)
33  CCCCC(=O)OCC(=O)[C@]1(O)Cc2c(O)c3c(c(O)c2[C@@H](O[C@H]2C[C@H](NC(=O)C(F)(F)F)[C@H](O)[C@H](C)O2)C1)C(=O)c1c(OC)cccc1C3=O  HT29 RNF43 G659fs (RNF43 659mut, CRISPR-edited)  false (0)
34               O=C(CCCCCCC(=O)Nc1cccnc1)NO  HT29 RNF43 G659fs (RNF43 659mut, CRISPR-edited)  false (0)
35  CC(=O)Nc1nc(C)c(-c2ccc(Cl)c(S(=O)(=O)NCCO)c2)s1  HT29 RNF43 G659fs (RNF43 659mut, CRISPR-edited)  false (0)
36  CN(C)CCOc1ccc(-c2nc(-c3ccncc3)c(-c3ccc4c(c3)CC/C4=N\O)[nH]2)cc1  HT29 RNF43 G659fs (RNF43 659mut, CRISPR-edited)  false (0)
37  O=C(O)C[C@H](O)C[C@H](O)/C=C/c1c(C2CC2)nc2ccccc2c1-c1ccc(F)cc1  HT29 RNF43 G659fs (RNF43 659mut, CRISPR-edited)  false (0)
